Test system: HepG2
Assay: cytotoxicity call (relative viability < 0.9)
Settings: 10 µM
About 3,300 (8.5%) of roughly 39,000 compounds were called active. The entries come from a sample that favours actives as a whole.
Parameter call: string, one of active, inactive

Q: Could you kindly confirm the outcome this assay logged for `C[C@H](CO)N1C[C@H](C)[C@H](CN(C)Cc2ccc(C(F)(F)F)cc2)OCCCC[C@H](C)Oc2ccc(NC(=O)c3ccncc3)cc2C1=O` ?
Result: inactive

Q: Which result was noted for this compound in the test: `C[C@@H]1CN([C@H](C)CO)C(=O)Cc2cc(NC(=O)Nc3ccc4c(c3)OCO4)ccc2O[C@H]1CN(C)Cc1ccc(-c2ccccc2)cc1`
Result: inactive

Q: Which outcome did this test record for the compound `CC(C)NC(=O)Nc1ccc2c(c1)C(=O)N([C@@H](C)CO)C[C@@H](C)[C@@H](CN(C)Cc1ccc(-c3ccccc3)cc1)O2` ?
Result: active

Q: Field: outcome | Entry: `COc1ccc(NC(=O)N(C)C[C@H]2Oc3ccc(NC(=O)Nc4ccc(C(F)(F)F)cc4)cc3CC(=O)N([C@@H](C)CO)C[C@@H]2C)cc1`
Result: inactive

Q: What classification did `CC(C)NC(=O)Nc1ccc2c(c1)C(=O)N([C@@H](C)CO)C[C@@H](C)[C@H](CN(C)Cc1ccc(-c3ccccc3)cc1)O2` end up with in this test?
Result: inactive

Q: What is the recorded call for this compound in the test? `COc1ccc(CNC(=O)C[C@@H]2C[C@@H]3c4cc(NC(=O)NC5CCCC5)ccc4O[C@@H]3[C@H](CO)O2)cc1`
Result: inactive

Q: // param item: `O=C(NCCn1ncc2c(=O)n(Cc3ccccc3)cnc21)c1ccc(S(=O)(=O)N2CCOCC2)cc1` ; yields the recorded call
Result: inactive

Q: // outcome(item) with item = `O=c1[nH]snc1N1CCCCC1`
Result: inactive
